For each record, write down the corresponding viability at 30 µM.
Experiment: Cytotoxicity against mouse Melan-a cells assessed as cell viability at 30 uM
Type: cell-based
Settings: Melan-a cells, read-out: Activity
Give bare numbers, in %.

# count of solved cases: 5
Smiles Str	viability at 30 µM (%)
COC(=O)c1ccccc1NC(=O)c1ccccc1C	9.7
COc1cccc(C(=O)Nc2ccccc2OC)c1	10.1
COc1ccc(NC(=O)c2cccc(OC)c2)cc1	0.5
CCCCOc1ccc(NC(=O)c2ccccc2C)cc1	9.9
CCc1ccc(C(=O)Nc2ccccc2C(=O)OC)cc1	18.9

List reported viability at 30 µM for each of these compounds:
1. COc1ccc(NC(=O)c2ccco2)cc1
2. COc1ccc(C(=O)Nc2cc(C(F)(F)F)cc(C(F)(F)F)c2)cc1

[out]
1. 13.6
2. 21

Could you report viability at 30 µM for every entry in the following list?
1. COc1ccc(NC(=O)c2ccccc2C)cc1
2. COc1cc(NC(=O)c2cccc(C)c2)cc(OC)c1
3. COc1cccc(C(=O)Nc2cc(OC)ccc2OC)c1
4. COC(=O)c1cccc(NC(=O)c2ccco2)c1

[out]
[12.8, -12.6, 17.8, 0.4]

For each of the items listed, what is its viability at 30 µM?
1. CC(=O)c1ccc(NC(=O)c2ccco2)cc1
2. COC(=O)c1ccc(NC(=O)c2cccc(OC)c2)cc1

[out]
[-2.6, 13.7]

Please give viability at 30 µM for each item listed below.
1. Cc1ccc(NC(=O)c2ccc(C)cc2)cc1
2. COC(=O)c1cccc(NC(=O)c2ccccc2C)c1
3. COc1cc(NC(=O)c2ccccc2C)cc(OC)c1
4. COc1cc(NC(=O)c2ccco2)cc(OC)c1
5. Cc1ccc(C(=O)Nc2cccc(C)c2)cc1
6. COc1ccc(C(=O)Nc2cc(C)cc(C)c2)cc1

[out]
13.9
4.6
6.4
-1.3
14.3
31.9
